- Experimental Details: in vivo
- Assay Setup: male, BALB/c, mouse, po, 10 mg/kg
Measure: Cmax at 24 h (ng/mL)
Give bare numbers, in ng/mL.

* CC1=C(C(=O)Nc2ccccc2C)C(c2ccco2)C2=C(CCCC2=O)N1 (stereo not shown) [Compound 1, reference compound] | 7470
* CC1=C(C(=O)Nc2cc(Cl)ccc2Cl)C(C2CCCC2)C2=C(CCCC2=O)N1 (stereo not shown) | 3800
* CC1=C(C(=O)Nc2cc(Cl)ccc2Cl)C(c2ccco2)C2=C(CCCC2=O)N1 (stereo not shown) [Compound 16, reference compound] | 5740

We next turn to a different molecule, shown below.
Query CCCC1C(C(=O)Nc2cc(Cl)ccc2Cl)=C(C)NC2=C1C(=O)CCC2 (stereo not shown) yields Cmax at 24 h of 561

----------
- Experimental Details: Kinetic aqueous solubility in PBS pH 7.4
- Format: physicochemical
- Assay Setup: phosphate buffered saline, pH 7.4; read-out: Aq. solub.
Provide the reported log10 solubility of each item.
Give log10 of solubility, with solubility taken in µM.

Below, each entry is followed by its recorded log10 solubility result.
• CCCC1C(C(=O)Nc2ccccc2C)=C(C)NC2=C1C(=O)CCC2 (centres unmarked) = 2.30
• CC1=C(C(=O)Nc2cc(Cl)ccc2Cl)C(c2ncco2)C2=C(CCCC2=O)N1 (centres unmarked) = 0.00
• CC1=C(C(=O)Nc2cc(Cl)ccc2Cl)C(c2cncs2)C2=C(CCCC2=O)N1 (centres unmarked) = 0.00
• CC1=C(C(=O)Nc2cc(Cl)ccc2Cl)C(c2cocn2)C2=C(CCCC2=O)N1 (centres unmarked) = 1.79
• CC1=C(C(=O)Nc2cc(Cl)ccc2Cl)C(C2CC2)C2=C(CCCC2=O)N1 (centres unmarked) = 0.70

Hi team, please reply with log10 solubility for each item in this list.
1. CC1=C(C(=O)Nc2cc(Cl)ccc2Cl)C(c2nccs2)C2=C(CCCC2=O)N1 (centres unmarked)
2. CCCC1C(C(=O)Nc2cc(OC)ccc2Cl)=C(C)NC2=C1C(=O)CCC2 (centres unmarked)

0.30
2.20

----------
- Experimental Details: in vivo
- Assay Setup: male, BALB/c, mouse, iv, 5 mg/kg
Provide the reported half-life at 24 h of each item.
Give bare numbers, in min.

Below, each entry is followed by its recorded half-life at 24 h result.
• CCCC1C(C(=O)Nc2cc(Cl)ccc2Cl)=C(C)NC2=C1C(=O)CCC2 (stereo not shown) = 11.4
• CC1=C(C(=O)Nc2ccccc2C)C(c2ccco2)C2=C(CCCC2=O)N1 (stereo not shown) [Compound 1, reference compound] = 62.2
• CC1=C(C(=O)Nc2cc(Cl)ccc2Cl)C(c2ccco2)C2=C(CCCC2=O)N1 (stereo not shown) [Compound 16, reference compound] = 22.3

Query CC1=C(C(=O)Nc2cc(Cl)ccc2Cl)C(C2CCCC2)C2=C(CCCC2=O)N1 (stereo not shown) yields half-life at 24 h of 37.8

----------
- Assay Target: UniProtKB O14843
- Sequence (O14843 1-346): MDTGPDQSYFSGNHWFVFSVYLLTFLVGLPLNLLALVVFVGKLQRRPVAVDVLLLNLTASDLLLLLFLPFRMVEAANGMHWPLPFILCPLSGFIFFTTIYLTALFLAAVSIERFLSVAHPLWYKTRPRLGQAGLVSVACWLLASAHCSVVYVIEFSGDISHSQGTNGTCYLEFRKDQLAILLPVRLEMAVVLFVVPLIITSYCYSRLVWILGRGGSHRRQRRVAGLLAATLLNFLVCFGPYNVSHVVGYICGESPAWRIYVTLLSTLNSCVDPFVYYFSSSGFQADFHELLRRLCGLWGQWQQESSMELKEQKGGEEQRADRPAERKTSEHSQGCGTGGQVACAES
- Experimental Details: biochemical
- Assay Setup: hFFA3; mean of ≥3 independent experiments ± standard error
Measure: GTPγS pEC50
Numbers only.

Hi team, please reply with GTPγS pEC50 for each item in this list.
1. CC1=C(C(=O)Nc2ccccc2C)C(c2ccoc2)C2=C(CCCC2=O)N1 (stereo not shown) [Compound 2, reference compound]
2. CC1=C(C(=O)Nc2ccc(C)cc2)C(c2ccco2)C2=C(CCCC2=O)N1 (stereo not shown)
3. CC1=C(C(=O)Nc2ccccc2I)C(CC(C)C)C2=C(CCCC2=O)N1 (stereo not shown)

1. 5.24
2. 5.27
3. 5.41

----------
Provide the reported Cav1.2 (L-type) binding (antagonist radioligand) of each item.
- Assay Target: Cav1.2 (L-type) Human Calcium Ion Channel (Homo sapiens, UniProt Q13936)
- Construct: Panlabs
- Sequence (Q13936 whole entry): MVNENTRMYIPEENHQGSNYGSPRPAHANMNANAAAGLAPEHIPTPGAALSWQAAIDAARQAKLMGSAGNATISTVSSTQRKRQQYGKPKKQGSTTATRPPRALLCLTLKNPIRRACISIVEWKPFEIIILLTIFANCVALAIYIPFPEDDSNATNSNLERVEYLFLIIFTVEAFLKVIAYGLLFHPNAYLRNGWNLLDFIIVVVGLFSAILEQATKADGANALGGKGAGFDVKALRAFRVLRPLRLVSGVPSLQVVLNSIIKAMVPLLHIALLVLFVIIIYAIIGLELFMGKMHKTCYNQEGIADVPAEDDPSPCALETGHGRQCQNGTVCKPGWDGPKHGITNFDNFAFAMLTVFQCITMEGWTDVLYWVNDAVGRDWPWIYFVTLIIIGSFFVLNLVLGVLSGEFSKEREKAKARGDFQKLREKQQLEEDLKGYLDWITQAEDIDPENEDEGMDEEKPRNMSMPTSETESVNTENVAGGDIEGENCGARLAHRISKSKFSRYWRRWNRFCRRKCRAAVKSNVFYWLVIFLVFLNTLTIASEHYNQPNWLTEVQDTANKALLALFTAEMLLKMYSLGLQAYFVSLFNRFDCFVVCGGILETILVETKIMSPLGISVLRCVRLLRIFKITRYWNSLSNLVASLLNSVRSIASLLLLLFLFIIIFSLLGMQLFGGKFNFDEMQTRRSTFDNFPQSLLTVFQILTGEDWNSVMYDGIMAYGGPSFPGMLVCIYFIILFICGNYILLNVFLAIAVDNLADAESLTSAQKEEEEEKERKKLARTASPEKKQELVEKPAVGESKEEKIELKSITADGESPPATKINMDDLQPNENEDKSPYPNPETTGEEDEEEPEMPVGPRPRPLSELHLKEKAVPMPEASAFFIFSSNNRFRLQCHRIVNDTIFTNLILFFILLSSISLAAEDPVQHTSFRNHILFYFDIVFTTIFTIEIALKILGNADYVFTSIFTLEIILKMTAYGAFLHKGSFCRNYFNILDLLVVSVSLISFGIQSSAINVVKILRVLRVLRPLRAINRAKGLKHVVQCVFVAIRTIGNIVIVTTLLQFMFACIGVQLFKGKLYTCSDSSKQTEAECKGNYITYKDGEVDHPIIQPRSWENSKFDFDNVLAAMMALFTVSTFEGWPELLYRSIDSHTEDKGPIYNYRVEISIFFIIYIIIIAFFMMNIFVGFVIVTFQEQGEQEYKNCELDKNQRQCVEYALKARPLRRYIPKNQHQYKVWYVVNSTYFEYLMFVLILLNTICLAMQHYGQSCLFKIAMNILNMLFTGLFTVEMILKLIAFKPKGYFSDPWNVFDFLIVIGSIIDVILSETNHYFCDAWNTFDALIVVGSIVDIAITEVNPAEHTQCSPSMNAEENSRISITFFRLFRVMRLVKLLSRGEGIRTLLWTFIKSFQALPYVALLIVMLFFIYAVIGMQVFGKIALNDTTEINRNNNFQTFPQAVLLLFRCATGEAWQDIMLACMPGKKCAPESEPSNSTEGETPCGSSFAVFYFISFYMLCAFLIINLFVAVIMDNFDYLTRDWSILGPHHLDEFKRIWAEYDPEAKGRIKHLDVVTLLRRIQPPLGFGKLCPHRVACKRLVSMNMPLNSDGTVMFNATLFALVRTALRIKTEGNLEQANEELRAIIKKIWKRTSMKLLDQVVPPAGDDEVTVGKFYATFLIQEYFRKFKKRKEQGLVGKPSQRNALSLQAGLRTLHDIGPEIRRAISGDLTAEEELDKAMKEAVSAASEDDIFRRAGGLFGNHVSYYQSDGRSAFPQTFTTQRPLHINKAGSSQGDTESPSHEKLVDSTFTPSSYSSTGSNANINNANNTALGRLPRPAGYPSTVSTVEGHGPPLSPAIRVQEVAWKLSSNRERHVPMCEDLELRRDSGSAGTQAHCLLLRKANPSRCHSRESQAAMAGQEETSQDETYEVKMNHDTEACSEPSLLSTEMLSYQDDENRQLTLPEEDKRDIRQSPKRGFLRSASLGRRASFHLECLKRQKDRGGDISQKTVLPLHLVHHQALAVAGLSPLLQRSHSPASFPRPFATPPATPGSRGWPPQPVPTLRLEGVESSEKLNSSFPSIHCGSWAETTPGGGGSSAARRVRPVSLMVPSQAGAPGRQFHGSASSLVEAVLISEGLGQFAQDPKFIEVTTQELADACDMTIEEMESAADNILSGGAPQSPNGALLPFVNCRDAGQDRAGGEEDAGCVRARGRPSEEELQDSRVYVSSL
- Sequence (Q08289 whole entry partner): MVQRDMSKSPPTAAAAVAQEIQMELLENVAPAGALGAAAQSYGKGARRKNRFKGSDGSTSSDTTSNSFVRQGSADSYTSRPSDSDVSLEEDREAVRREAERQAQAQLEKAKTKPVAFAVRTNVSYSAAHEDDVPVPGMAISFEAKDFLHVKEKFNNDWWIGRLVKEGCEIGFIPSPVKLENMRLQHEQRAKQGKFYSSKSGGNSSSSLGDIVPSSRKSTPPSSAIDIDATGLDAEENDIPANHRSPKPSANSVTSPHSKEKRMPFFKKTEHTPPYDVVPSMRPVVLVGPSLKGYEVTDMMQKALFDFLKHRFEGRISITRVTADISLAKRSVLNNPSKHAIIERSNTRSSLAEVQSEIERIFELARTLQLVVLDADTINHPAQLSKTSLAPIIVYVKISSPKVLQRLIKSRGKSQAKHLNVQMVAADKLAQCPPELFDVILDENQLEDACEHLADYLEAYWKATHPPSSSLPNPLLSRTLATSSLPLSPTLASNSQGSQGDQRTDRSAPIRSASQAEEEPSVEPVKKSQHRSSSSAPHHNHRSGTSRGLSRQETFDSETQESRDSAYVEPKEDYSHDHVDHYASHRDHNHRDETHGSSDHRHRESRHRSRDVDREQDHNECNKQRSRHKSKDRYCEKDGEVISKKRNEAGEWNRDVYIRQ
- Sequence (P54289 25-946 partner limits assumed): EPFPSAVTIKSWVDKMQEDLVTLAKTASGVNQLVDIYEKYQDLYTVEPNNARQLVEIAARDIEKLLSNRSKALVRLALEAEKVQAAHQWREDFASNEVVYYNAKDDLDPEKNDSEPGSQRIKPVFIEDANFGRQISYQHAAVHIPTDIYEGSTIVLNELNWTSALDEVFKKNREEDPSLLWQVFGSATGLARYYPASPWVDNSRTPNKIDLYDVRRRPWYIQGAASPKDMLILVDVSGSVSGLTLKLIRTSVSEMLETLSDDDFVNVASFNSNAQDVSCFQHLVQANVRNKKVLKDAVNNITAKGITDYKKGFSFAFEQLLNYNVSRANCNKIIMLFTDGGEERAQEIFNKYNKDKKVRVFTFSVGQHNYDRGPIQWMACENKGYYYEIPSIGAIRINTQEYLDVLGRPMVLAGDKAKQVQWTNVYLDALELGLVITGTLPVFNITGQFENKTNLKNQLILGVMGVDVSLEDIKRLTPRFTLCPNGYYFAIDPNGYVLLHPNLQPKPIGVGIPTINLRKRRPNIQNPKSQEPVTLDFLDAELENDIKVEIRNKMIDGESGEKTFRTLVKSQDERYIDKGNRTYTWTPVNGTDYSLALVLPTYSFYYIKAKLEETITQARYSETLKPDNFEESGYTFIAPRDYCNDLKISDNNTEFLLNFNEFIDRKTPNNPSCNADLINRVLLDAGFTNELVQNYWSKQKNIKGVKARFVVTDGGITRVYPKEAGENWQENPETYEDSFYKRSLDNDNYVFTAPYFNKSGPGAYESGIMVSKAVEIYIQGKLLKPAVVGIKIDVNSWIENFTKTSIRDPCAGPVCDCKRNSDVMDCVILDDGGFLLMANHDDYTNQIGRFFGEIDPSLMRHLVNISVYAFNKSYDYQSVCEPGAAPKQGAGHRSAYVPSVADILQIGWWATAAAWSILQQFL
- Sequence (P54289 947-1103 partner limits assumed): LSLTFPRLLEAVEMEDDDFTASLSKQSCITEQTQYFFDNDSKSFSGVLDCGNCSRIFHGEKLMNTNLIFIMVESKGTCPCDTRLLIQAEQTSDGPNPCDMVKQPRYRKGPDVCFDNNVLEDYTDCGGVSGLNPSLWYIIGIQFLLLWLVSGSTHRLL
- Experimental Details: Cav1.2 (L-type) calcium ion channel binding assay, Panlabs
- Assay Setup: 10 μM
Numbers only, in %.

Below, each entry is followed by its recorded Cav1.2 (L-type) binding (antagonist radioligand) result.
* CC1=C(C(=O)Nc2ccccc2C)C(c2ccco2)C2=C(CCCC2=O)N1 (stereo not shown) [Compound 1, reference compound] | -20
* CCCC1C(C(=O)Nc2cc(Cl)ccc2Cl)=C(C)NC2=C1C(=O)CCC2 (stereo not shown) | 12
* CC1=C(C(=O)Nc2cc(Cl)ccc2Cl)C(C2CCCC2)C2=C(CCCC2=O)N1 (stereo not shown) | 1

We next turn to a different compound, shown below.
Query CC1=C(C(=O)Nc2cc(Cl)ccc2Cl)C(c2ccco2)C2=C(CCCC2=O)N1 (stereo not shown) [Compound 16, reference compound] yields Cav1.2 (L-type) binding (antagonist radioligand) of 13

----------
Provide the reported Emax of each item.
- Assay Target: hFFA3 (Homo sapiens)
- Experimental Details: cell-based
- Assay Setup: HEK293, read-out: cAMP Emax
One number for each entry, in %.

Below, each entry is followed by its recorded Emax result.
• CC1=C(C(=O)Nc2ccccc2C)C(c2ccccc2)C2=C(CCCC2=O)N1 (centres unmarked) = 98
• CCCC1C(C(=O)Nc2ccccc2Cl)=C(C)NC2=C1C(=O)CCC2 (centres unmarked) = 105
• CC1=C(C(=O)Nc2cccc(C)c2)C(c2ccco2)C2=C(CCCC2=O)N1 (centres unmarked) = 100

Hi team, please reply with Emax for each item in this list.
1. CC1=C(C(=O)Nc2cc(Cl)ccc2Cl)C(c2ccco2)C2=C(CCCC2=O)N1 (centres unmarked) [Compound 16, reference compound]
2. CC1=C(C(=O)Nc2ccccc2C)C(/C=C/c2ccccc2)C2=C(CCCC2=O)N1 (centres unmarked)
3. CC1=C(C(=O)Nc2ccccc2C)C(CC(C)C)C2=C(CCCC2=O)N1 (centres unmarked)
4. CC1=C(C(=O)Nc2c(F)cccc2F)C(CC(C)C)C2=C(CCCC2=O)N1 (centres unmarked)

1: 106; 2: 113; 3: 109; 4: 104

Hi team, please reply with Emax for each item in this list.
1. CC1=C(C(=O)Nc2ccccc2I)C(CC(C)C)C2=C(CCCC2=O)N1 (centres unmarked)
2. CC1=C(C(=O)Nc2ccccc2C)C(c2ccc(C)o2)C2=C(CCCC2=O)N1 (centres unmarked)
3. CC1=C(C(=O)Nc2ccccc2C)C(C2CCCCC2)C2=C(CCCC2=O)N1 (centres unmarked)
4. CCCC1C(C(=O)Nc2cc(Cl)ccc2Cl)=C(C)NC2=C1C(=O)CCC2 (centres unmarked)
5. CCCC1C(C(=O)Nc2cc(C)ccc2Cl)=C(C)NC2=C1C(=O)CCC2 (centres unmarked)
6. CC1=C(C(=O)Nc2ccccc2C)C(CCc2ccccc2)C2=C(CCCC2=O)N1 (centres unmarked)
7. CCCC1C(C(=O)Nc2cccc(Cl)c2)=C(C)NC2=C1C(=O)CCC2 (centres unmarked)

89
100
91
113
103
97
105

----------
Provide the reported bioavailability at 24 h of each item.
- Experimental Details: in vivo
- Assay Setup: male, BALB/c, mouse, po, 10 mg/kg
One number for each entry, in %.

* CC1=C(C(=O)Nc2cc(Cl)ccc2Cl)C(c2ccco2)C2=C(CCCC2=O)N1 (stereo not shown) [Compound 16, reference compound] | 88
* CCCC1C(C(=O)Nc2cc(Cl)ccc2Cl)=C(C)NC2=C1C(=O)CCC2 (stereo not shown) | 36
* CC1=C(C(=O)Nc2ccccc2C)C(c2ccco2)C2=C(CCCC2=O)N1 (stereo not shown) [Compound 1, reference compound] | 73

We next turn to a different compound, shown below.
Query CC1=C(C(=O)Nc2cc(Cl)ccc2Cl)C(C2CCCC2)C2=C(CCCC2=O)N1 (stereo not shown) yields bioavailability at 24 h of 66

----------
Provide the reported PAM pEC50 of each item.
- Assay Target: hFFA3 (Homo sapiens)
- Experimental Details: cell-based
- Assay Setup: cAMP assay in the presence of 1 μM propionate
Answers are plain numbers.

Below, each entry is followed by its recorded PAM pEC50 result.
* CC1=C(C(=O)Nc2ccccc2C)C(c2cccs2)C2=C(CCCC2=O)N1 (stereo not drawn) [Compound 4] | 5.92
* CC1=C(C(=O)Nc2ccccc2C)C(c2ccco2)C2=C(CCCC2=O)N1 (stereo not drawn) [Compound 1, reference compound] | 6.27
* CC1=C(C(=O)Nc2ccccc2C)C(CCc2ccccc2)C2=C(CCCC2=O)N1 (stereo not drawn) [Compound 38] | 6.23

Hi team, please reply with PAM pEC50 for each item in this list.
1. COC(=O)C1=C(C)NC(C)=C(C(=O)Nc2ccccc2C)C1CC(C)C (stereo not drawn) [Compound 26]
2. CCC(C)C1C(C(=O)Nc2ccccc2C)=C(C)NC2=C1C(=O)CCC2 (stereo not drawn) [Compound 30]
3. CCCCCC1C(C(=O)Nc2ccccc2C)=C(C)NC2=C1C(=O)CCC2 (stereo not drawn) [Compound 37]
4. CC1=C(C(=O)Nc2ccccc2C)C(/C=C/c2ccccc2)C2=C(CCCC2=O)N1 (stereo not drawn) [Compound 39]
5. CC1=C(C#N)C(CC(C)C)C(C(=O)Nc2ccccc2C)=C(C)N1 (stereo not drawn) [Compound 27]
6. CCC1C(C(=O)Nc2ccccc2C)=C(C)NC2=C1C(=O)CCC2 (stereo not drawn) [Compound 34]

[6.16, 6.30, 6.40, 6.14, 6.42, 6.45]
